Recorded values, source patent US20250368648A1.

target: FLT3 Autoinh. (Homo sapiens)
Sequence (P36888 564-993 limits assumed): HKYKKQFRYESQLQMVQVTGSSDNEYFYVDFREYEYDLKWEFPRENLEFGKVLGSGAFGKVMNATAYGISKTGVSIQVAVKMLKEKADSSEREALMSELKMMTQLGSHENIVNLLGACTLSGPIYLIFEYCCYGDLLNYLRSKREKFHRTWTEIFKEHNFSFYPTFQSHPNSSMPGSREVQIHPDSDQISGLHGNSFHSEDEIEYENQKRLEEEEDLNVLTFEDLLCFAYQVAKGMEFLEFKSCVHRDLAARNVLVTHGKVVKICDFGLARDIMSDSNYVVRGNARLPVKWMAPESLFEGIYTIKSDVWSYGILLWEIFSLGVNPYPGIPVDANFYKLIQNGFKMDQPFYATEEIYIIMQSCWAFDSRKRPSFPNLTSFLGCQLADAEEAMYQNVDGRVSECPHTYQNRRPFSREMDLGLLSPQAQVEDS
Attribute measured: Kd
Report the figure along with its unit, number first.

Could you tell me which Kd is on file for COc1cc2ncc(-c3nc(N[C@H]4CNCC[C@@H]4F)c(F)cc3F)n2nc1C1CCC1 [Compound 15a] ?
5.8 nM

====

tested on: MOLM14 (D835Y) cells; experiment: Combination drug screening, Cell Titer Glo, MOLM14 (D835Y) cells; details: combination therapy of Compound 102 and the named additional compound; MOLM14(D835Y) cells; 10 × 10 dataset
Attribute measured: Sum Excess HSA Score
Write the number on its own, no unit after it.

Reference set, count: 5
1. NC1(C(=O)N[C@@H](CCO)c2ccc(Cl)cc2)CCN(c2nc[nH]c3nccc2-3)CC1 ... −439.3
2. Nc1cccc2c1CN(C1CCC(=O)NC1=O)C2=O (stereo not drawn) [Lenalidomide] ... 59.07
3. C[C@]12C=CC(=O)C=C1CC[C@@H]1[C@@H]2[C@@H](O)C[C@@]2(C)[C@H]1CC[C@]2(O)C(=O)CO ... −260.2
4. COc1cc(F)ccc1-c1cc(Nc2cc(CS(C)(=N)=O)ccn2)ncc1F (single isomer, unassigned; (+)) [(+)-BAY-1251152, BAY1251152] ... −20.6
5. CCN(C(=O)c1cc(F)ccc1Oc1cncnc1N1CC2(CCN(C[C@H]3CC[C@H](NS(=O)(=O)CC)CC3)CC2)C1)C(C)C ... −748.9985

From here, focus on the item given below.
Could you tell me which Sum Excess HSA Score is on file for `CC(C)[C@@H](CS(=O)(=O)C(C)C)N1C(=O)[C@@](C)(CC(=O)O)C[C@H](c2cccc(Cl)c2)[C@H]1c1ccc(Cl)cc1` ?
−197.3

====

test system: MOLM14 (D835Y) cells; assay: Combination drug screening, Cell Titer Glo, MOLM14 (D835Y) cells; conditions: combination therapy of CG-806 (a FLT3/BTK inhibitor) and the named additional compound; MOLM14(D835Y) cells; 110 × 10 dataset;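 note: MOLM14 cells with FLT3 ITD plus D835Y, 500 per well in 1536-well plates, 10-point dose ranges, luminescent viability after 48 h, negative Excess HSA indicates synergy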
Reported Sum Excess HSA Score by item:
Write the number on its own, no unit after it.

Reference set, count: 2
1. N#Cc1ccnc(N2C(=O)CC[C@H]2C(=O)N(c2cncc(F)c2)[C@H](C(=O)NC2CC(F)(F)C2)c2ccccc2Cl)c1 [Ivosidenib, ivosidenib] ... −199.6
2. COc1cc(F)ccc1-c1cc(Nc2cc(CS(C)(=N)=O)ccn2)ncc1F (single isomer, unassigned; (+)) [(+)-BAY-1251152, BAY1251152] ... 1704

Provide value of Sum Excess HSA Score for this record tested with MOLM14 (D835Y) cells: CCN(C(=O)c1cc(F)ccc1Oc1cncnc1N1CC2(CCN(C[C@H]3CC[C@H](NS(=O)(=O)CC)CC3)CC2)C1)C(C)C [SNDX-5613]
−1.886

Provide value of Sum Excess HSA Score for this record tested with MOLM14 (D835Y) cells: CC(C)[C@@H](CS(=O)(=O)C(C)C)N1C(=O)[C@@](C)(CC(=O)O)C[C@H](c2cccc(Cl)c2)[C@H]1c1ccc(Cl)cc1 [AMG-232, navtemadlin]
−536.7

Provide value of Sum Excess HSA Score for this record tested with MOLM14 (D835Y) cells: Nc1cccc2c1CN(C1CCC(=O)NC1=O)C2=O (stereo not drawn) [Lenalidomide]
141.5

Provide value of Sum Excess HSA Score for this record tested with MOLM14 (D835Y) cells: C[C@@H]1OCC2(CCN(c3cnc(Sc4ccnc(N)c4Cl)c(N)n3)CC2)[C@@H]1N [TNO-155]
−753.6
